# System: AnPSV
# protocol notes: CPE reduction assay in DPHt cells
# Assay type: cell-based, Antaresian python serpentovirus
# conditions: average ± SD, read-out: EC50 (50% effective concentration, CPE reduction assay)
Give EC50 for every item shown.
One number for each entry, in µg/mL.

NC(=O)c1ncn([C@@H]2O[C@H](CO)[C@@H](O)[C@H]2O)n1 ... 2

Now take the following molecule into account.
# EC50 (molecule: `CCOC(=O)c1ccc(OCCC2CCN(c3ccc(C)nn3)CC2)cc1` ) is 1.1

###

# protocol notes: Cytotoxicity in uninfected wells of the CPE assay
# Assay type: cell-based, Diamond python (Morelia spilota spilota)
# conditions: Diamond python (Morelia spilota spilota), CC50 (50% cytotoxic concentration)
value type: CC50 (µg/mL)
Numbers only, in µg/mL.

CCOC(=O)c1ccc(OCCC2CCN(c3ccc(C)nn3)CC2)cc1 [Pirodavir, pirodavir] ... 7.3

Lab note: next molecule to report on.
Given item CCC(CC)COC(=O)[C@H](C)N[P@](=O)(OC[C@H]1O[C@@](C#N)(c2ccc3c(N)ncnn23)[C@H](O)[C@@H]1O)Oc1ccccc1 [Remdesivir] , the value recorded as its CC50 is 2.2
